B1: glmS ribozyme (parent)
chain: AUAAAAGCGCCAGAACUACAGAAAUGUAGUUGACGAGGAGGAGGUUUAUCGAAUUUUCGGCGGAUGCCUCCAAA

variants of: B1; test: self-cleavage kobs at 160 uM GlcN6P; higher = faster cleavage; RNA array; conditions: with glucosamine-6-phosphate
Fewer inactive variants are shown than the library holds.
measured endpoint: self-cleavage kobs at 160 uM GlcN6P (s⁻¹)
Reply with just the number (in s⁻¹).

stdin: Can you look up the measured self-cleavage kobs at 160 uM GlcN6P of A14C A53G for me?
stdout: 0.000245

stdin: Can you look up the measured self-cleavage kobs at 160 uM GlcN6P of G37A C50G U69C for me?
stdout: 5.92e-05

stdin: Can you look up the measured self-cleavage kobs at 160 uM GlcN6P of U30A A39U for me?
stdout: 0.000401

stdin: Can you look up the measured self-cleavage kobs at 160 uM GlcN6P of G29A A39U G40A for me?
stdout: 7.25e-05

stdin: Can you look up the measured self-cleavage kobs at 160 uM GlcN6P of C34U C70G for me?
stdout: 0.000827

stdin: Can you look up the measured self-cleavage kobs at 160 uM GlcN6P of A39G U47A for me?
stdout: 0.00231

stdin: Can you look up the measured self-cleavage kobs at 160 uM GlcN6P of U45G U47G for me?
stdout: 0.000328

stdin: Can you look up the measured self-cleavage kobs at 160 uM GlcN6P of G44A U45G for me?
stdout: 0.000285

stdin: Can you look up the measured self-cleavage kobs at 160 uM GlcN6P of A14U C16G for me?
stdout: 5.83e-05

stdin: Can you look up the measured self-cleavage kobs at 160 uM GlcN6P of U46G C70U for me?
stdout: 0.000556

stdin: Can you look up the measured self-cleavage kobs at 160 uM GlcN6P of U56A C70G for me?
stdout: 8.18e-05

stdin: Can you look up the measured self-cleavage kobs at 160 uM GlcN6P of G29U C71U for me?
stdout: 0.000298

stdin: Can you look up the measured self-cleavage kobs at 160 uM GlcN6P of C16U U69A for me?
stdout: 6.03e-05

stdin: Can you look up the measured self-cleavage kobs at 160 uM GlcN6P of A53C C71U for me?
stdout: 0.000539

stdin: Can you look up the measured self-cleavage kobs at 160 uM GlcN6P of C16U C71U for me?
stdout: 0.00136

stdin: Can you look up the measured self-cleavage kobs at 160 uM GlcN6P of C50G G62U for me?
stdout: 0.000115

stdin: Can you look up the measured self-cleavage kobs at 160 uM GlcN6P of G13A C70U for me?
stdout: 7.83e-05

stdin: Can you look up the measured self-cleavage kobs at 160 uM GlcN6P of G32U U45A for me?
stdout: 9.56e-05

stdin: Can you look up the measured self-cleavage kobs at 160 uM GlcN6P of U47C U65A for me?
stdout: 0.000154

stdin: Can you look up the measured self-cleavage kobs at 160 uM GlcN6P of A12C G40C for me?
stdout: 5.51e-05

Reference for the values: the supplement of paper PMC7125110
